B1: PPFIA4 (parent)
chain: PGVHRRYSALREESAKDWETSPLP

variants of: B1; assay: protein stability index of a GFP-peptide fusion (GPS, HEK-293T) (PSI 1-6); higher = more stable; conditions: c terminus: a fixed tail appended;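 further: lentivirally expressed fusions sorted by FACS into six bins by GFP to DsRed ratio, PSI derived from sequencing read proportions per bin multiplied by bin number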
Attribute: protein stability index

# var, protein stability index
records = [
    ("S21K", 3.98),
    ("W18L", 4.96),
    ("P22V", 3.68),
    ("D17T", 3.31),
    ("P1L", 3.11),
    ("R5K", 4.34),
    ("Y7L", 4.18),
    ("H4N", 4.52),
    ("L23M", 4.79),
    ("L23H", 4.53),
    ("Y7M", 4.56),
]

Data origin, for the record: the supplement of paper PMC10567573
